- Study System: mTOR (Homo sapiens, UniProt P42345)
- Construct: purchased Invitrogen
- Sequence (P42345 1360-2549 limits assumed): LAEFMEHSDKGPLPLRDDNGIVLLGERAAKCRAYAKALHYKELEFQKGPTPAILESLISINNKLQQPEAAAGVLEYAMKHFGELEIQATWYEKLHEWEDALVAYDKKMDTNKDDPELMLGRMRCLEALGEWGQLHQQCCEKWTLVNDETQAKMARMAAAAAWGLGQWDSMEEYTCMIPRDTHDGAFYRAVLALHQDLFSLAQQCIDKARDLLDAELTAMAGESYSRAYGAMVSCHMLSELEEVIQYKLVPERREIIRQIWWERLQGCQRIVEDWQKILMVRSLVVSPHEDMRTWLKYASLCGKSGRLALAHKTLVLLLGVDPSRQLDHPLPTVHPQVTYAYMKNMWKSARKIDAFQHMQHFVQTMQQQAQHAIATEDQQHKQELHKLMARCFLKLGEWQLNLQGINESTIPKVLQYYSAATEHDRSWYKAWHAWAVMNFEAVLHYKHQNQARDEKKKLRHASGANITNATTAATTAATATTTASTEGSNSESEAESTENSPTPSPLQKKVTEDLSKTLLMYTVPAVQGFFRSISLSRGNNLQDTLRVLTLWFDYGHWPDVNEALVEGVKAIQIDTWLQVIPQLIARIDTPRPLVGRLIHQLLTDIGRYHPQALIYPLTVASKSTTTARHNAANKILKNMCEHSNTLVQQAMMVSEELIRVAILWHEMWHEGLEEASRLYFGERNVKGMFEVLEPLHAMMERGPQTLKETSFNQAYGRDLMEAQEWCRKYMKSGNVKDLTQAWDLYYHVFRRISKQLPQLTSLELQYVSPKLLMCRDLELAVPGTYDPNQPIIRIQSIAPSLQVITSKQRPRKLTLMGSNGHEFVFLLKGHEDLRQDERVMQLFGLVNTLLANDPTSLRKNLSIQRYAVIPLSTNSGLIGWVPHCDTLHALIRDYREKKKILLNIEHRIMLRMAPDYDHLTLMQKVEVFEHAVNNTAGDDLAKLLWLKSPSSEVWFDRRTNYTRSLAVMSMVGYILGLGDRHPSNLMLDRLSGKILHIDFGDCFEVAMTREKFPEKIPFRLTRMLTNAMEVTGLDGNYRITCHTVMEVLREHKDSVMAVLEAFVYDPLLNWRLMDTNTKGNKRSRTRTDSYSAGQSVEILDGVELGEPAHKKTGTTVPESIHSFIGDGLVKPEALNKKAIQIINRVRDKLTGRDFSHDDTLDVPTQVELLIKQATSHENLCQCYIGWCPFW
- Protocol: mTOR kinase inhibition assay (radiometric or LanthaScreen TR-FRET)
- Type: biochemical
- Run Conditions: read-out: mTORC IC50
pIC50: −log10 of the molar value.
Readout Name: pIC50

Here is how some compounds turned out for pIC50.
INSERT INTO measurements (compound, study_system, test_result) VALUES
  ('Nc1nc2cc(-c3ccc4ncc(-c5ccncc5)n4c3)ccc2o1 [Compound 6]', 'mTOR (Homo sapiens, UniProt P42345)', '> 5.00'),
  ('Nc1nc2cc(-c3ccc4ncnc(OC5CCOCC5)c4c3)ccc2o1 [Compound 47]', 'mTOR (Homo sapiens, UniProt P42345)', '> 7.00'),
  ('Nc1nc2cc(-c3ccc4ncc(N5CC(C(=O)N6CCOCC6)C5)nc4c3)ccc2o1 [Compound 169]', 'mTOR (Homo sapiens, UniProt P42345)', '> 5.00');

Param item = Nc1nc2cc(-c3ccc4ncc(N5CC(N6CCN(CC7CC7)CC6)C5)nc4c3)ccc2o1 [Compound 335] ; retrieve measured pIC50.
< 5.00

GET /values?readout=pIC50&item= N#Cc1cnc2ccc(-c3ccc4oc(N)nc4c3)cc2c1Cl [Compound 77]
> 6.00

Entry Nc1nc2cc(-c3ccc4ncc(N5CCN(C(=O)[C@@H]6CCCN6)CC5)nc4c3)ccc2o1 [Compound 121] : reported pIC50 = ?
< 5.00

Entry CC(=O)N1CCN(C2CN(c3cnc4ccc(-c5ccc6oc(N)nc6c5)cc4n3)C2)CC1 [Compound 327] has what pIC50?
< 5.00

Item Nc1nc2cccc(-c3ccc4nccc(-c5ccncc5)c4c3)c2o1 [Compound 15] has what recorded pIC50?
> 7.00

Using the record for CN(C)CC(=O)N1CCN(c2cnc3ccc(-c4ccc5oc(N)nc5c4)cc3n2)CC1 [Compound 139] , report its pIC50.
< 5.00

pIC50 lookup needed for C[C@@H]1CN(C(=O)C2CN(c3cnc4ccc(-c5ccc6oc(N)nc6c5)cc4n3)C2)CCN1 [Compound 267] , thanks.
> 5.00

# lookup: pIC50 of Nc1nc2cc(-c3ccc4oc(N)nc4c3)ccc2o1 [Compound 240]
> 5.00

Fill in the blank: the reported pIC50 of CN1CCN([C@@H]2CCN(c3cnc4ccc(-c5ccc6oc(N)nc6c5)cc4n3)C2)CC1 [Compound 379] is ____.
> 5.00

Report pIC50 for Cn1cc(-c2cnc3ccc(-c4ccc5oc(N)nc5c4)cn23)cn1 [Compound 41] please.
> 5.00

###

- Study System: PI3K α (p110α/p85α) (Homo sapiens, UniProt P42336)
- Construct: purchased Upstate / Millipore Corporation
- Sequence (P42336 whole entry): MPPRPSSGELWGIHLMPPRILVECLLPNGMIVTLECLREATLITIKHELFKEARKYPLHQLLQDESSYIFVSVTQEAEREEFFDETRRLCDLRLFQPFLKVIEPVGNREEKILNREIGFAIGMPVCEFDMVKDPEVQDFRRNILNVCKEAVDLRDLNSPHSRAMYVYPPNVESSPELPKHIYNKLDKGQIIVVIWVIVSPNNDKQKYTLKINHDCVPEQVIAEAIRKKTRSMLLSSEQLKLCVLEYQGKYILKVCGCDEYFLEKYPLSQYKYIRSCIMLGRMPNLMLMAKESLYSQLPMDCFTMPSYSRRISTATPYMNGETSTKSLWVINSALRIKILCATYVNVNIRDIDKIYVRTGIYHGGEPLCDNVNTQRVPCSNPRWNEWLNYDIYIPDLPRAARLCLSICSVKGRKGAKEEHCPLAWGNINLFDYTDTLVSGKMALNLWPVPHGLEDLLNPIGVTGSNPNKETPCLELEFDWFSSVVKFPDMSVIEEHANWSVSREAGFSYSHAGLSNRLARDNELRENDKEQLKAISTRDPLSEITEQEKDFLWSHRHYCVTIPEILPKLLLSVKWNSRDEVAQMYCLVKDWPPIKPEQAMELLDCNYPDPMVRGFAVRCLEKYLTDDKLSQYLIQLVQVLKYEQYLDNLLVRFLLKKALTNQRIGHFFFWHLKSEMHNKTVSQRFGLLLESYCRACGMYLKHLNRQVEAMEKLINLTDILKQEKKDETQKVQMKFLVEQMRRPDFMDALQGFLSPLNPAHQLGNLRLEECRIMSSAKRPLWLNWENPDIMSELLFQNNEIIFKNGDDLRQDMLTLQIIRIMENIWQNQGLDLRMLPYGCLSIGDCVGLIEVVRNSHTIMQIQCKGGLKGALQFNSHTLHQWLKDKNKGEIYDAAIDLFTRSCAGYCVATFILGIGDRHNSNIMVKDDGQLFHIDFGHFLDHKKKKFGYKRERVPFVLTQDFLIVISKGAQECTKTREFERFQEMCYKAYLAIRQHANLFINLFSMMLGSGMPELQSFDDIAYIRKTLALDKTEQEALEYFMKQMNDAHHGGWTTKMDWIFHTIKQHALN
- Sequence (P27986 whole entry partner): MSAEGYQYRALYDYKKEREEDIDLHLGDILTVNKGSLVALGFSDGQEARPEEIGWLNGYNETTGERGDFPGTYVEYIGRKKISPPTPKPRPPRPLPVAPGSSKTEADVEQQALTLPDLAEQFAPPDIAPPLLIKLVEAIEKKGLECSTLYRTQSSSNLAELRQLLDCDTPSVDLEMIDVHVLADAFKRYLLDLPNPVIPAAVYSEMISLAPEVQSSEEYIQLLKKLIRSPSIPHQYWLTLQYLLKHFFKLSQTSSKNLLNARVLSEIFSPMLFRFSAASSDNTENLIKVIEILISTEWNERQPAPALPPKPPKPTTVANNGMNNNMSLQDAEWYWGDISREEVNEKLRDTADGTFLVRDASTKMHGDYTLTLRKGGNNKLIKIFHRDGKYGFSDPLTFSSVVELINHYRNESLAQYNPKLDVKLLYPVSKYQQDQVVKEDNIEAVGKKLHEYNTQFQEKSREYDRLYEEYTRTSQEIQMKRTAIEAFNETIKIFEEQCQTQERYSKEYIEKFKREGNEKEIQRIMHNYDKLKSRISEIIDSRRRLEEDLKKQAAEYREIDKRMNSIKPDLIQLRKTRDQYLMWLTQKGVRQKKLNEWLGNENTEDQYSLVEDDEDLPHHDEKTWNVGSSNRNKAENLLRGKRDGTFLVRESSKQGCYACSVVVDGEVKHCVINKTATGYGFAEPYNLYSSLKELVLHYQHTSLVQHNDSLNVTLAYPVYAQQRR
- Protocol: PI 3-Kinase (human) HTRF assay, PI3K α
- Format: biochemical
- Run Conditions: read-out: PI3K α IC50
The entries below come with measured IC50 values attached.

Consider the worked cases shown below.
INSERT INTO assay_data (compound, test_result) VALUES
  ('CCN(CC)CCn1cnc2ccc(-c3ccc4oc(N)nc4c3)cc2c1=O', '< 10000 nM'),
  ('N#Cc1cnc2ccc(-c3ccc4oc(N)nc4c3)cc2c1-c1ccncc1', '< 100 nM'),
  ('O=C(c1cnc2ccc(-c3cnc(Cl)c(NS(=O)(=O)c4ccc(F)cc4F)c3)cn12)N1CCOCC1', '< 100 nM'),
  ('CN1CCN(C(=O)C2CN(c3cnc4ccc(-c5ccc6oc(N)nc6c5)cc4n3)C2)CC1 [Compound 170]', '< 100 nM'),
  ('Nc1nc2cc(-c3ccc4ncc(-c5cnn(CCO)c5)nc4c3)ccc2o1', '< 100 nM');

Can you share its IC50? I mean this compound: CC(=O)Nc1nc2ccc(-c3ccc4nc(N)oc4c3)cc2s1
< 100 nM

Quick one: IC50 for Nc1nc2cc(-c3ccc4ncc(NCCN5CCCC5)nc4c3)ccc2o1 ?
< 1000 nM

IC50 lookup needed for Nc1nc2cc(-c3ccc4ncc(-c5cn[nH]c5)nc4c3)ccc2o1 , thanks.
< 100 nM
